Where do the numbers come from? From PubChem BioAssay AID485270.

Target: Orexin/Hypocretin receptor type 1 (Homo sapiens) (UniProt O43613)
Sequence (O43613 whole entry, looked up): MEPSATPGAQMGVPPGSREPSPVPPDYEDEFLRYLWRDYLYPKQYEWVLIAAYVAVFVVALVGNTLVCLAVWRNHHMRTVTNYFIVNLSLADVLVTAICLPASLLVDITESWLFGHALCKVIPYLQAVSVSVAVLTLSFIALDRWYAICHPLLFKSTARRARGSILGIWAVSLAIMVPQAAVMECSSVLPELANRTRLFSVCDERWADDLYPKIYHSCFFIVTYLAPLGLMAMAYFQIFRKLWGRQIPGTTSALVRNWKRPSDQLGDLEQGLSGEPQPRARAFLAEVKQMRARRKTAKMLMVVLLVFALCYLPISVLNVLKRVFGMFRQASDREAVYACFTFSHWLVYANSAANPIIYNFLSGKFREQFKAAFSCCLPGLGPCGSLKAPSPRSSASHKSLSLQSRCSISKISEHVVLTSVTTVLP
Experiment: antagonists of human orexin 1 receptor (OX1R) (AID 485270);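 note: 0% = agonist challenge alone and 100% = reference antagonist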
Conditions: OX1R-expressing cells, FRET antagonist read-out; at 6.6 µM
About 5,800 (1.8%) of roughly 330,000 compounds were called active. Cut-off read from the data, not from the text of the source: active = inhibition mostly above about 38% (no sharp cut-off); inactive = mostly below about 40%. Only a selection was taken, and actives are over-represented in it overall.
Outcomes: Y = active, N = inactive

| Compound | Category |
| --- | --- |
| COc1cc(NC(=O)c2[nH]cnc2C(N)=O)cc(C(=O)Nc2cccc(C(F)(F)F)c2)c1 | N |
| COc1ccc(CNC(=O)c2cc3c(=O)n4ccccc4nc3n(CC3CCCO3)c2=N)cc1 (centres undefined) | Y |
| Cc1c(NC(=O)C(C)Oc2cccc(Cl)c2)c(=O)n(-c2ccccc2)n1C (centres undefined) | N |
| COc1ccc(CCn2c(=N)c(C(=O)NCC3CCCO3)cc3c(=O)n4cccc(C)c4nc32)cc1OC (centres undefined) | N |
| Cc1ccc(CNC(=O)c2ccc3c(c2)S(=O)(=O)c2ccccc2C3=O)cc1 | N |
| CC(C)(C)OC(=O)C[C@@H]1C/C=C\C[C@@H](CC(=O)N[C@@H](CO)Cc2ccccc2)C(=O)N2CCC[C@H]2COC1=O | N |
| CC(=O)NC(=S)Nc1ccc(NC(=S)NC(=O)c2ccc([N+](=O)[O-])cc2)cc1 | N |
| CC(NC(=O)c1ccccc1C(=O)O)c1ccc(-n2ccnc2)cc1 (centres undefined) | N |
| Cc1ccc(CCNC(=O)c2ccc3nc4ccccc4c(=O)n3c2)cc1 | N |
| COCCCNC(=S)NC(=O)c1ccc([N+](=O)[O-])cc1 | Y |
| CC[C@]1(C(=O)OC)[C@H]2C(=O)N(Cc3ccccc3)C(=O)[C@H]2[C@H]2CN=C(SCc3ccccc3)N21 | N |
| CC(NC(=O)c1ccccc1F)c1cccc2ccccc12 (centres undefined) | N |
| Cn1nnnc1SCC(=O)Nc1cccc(S(=O)(=O)N2CCCCC2)c1 | N |
| C=CC[C@@H](CC(=O)N[C@H](CO)Cc1ccccc1)C(=O)N[C@H](C)COC(=O)[C@@H](CC=C)Cc1ccc(F)cc1 | N |
| CN(CCc1ccccc1)C(=O)c1cccc(NC(=O)Cc2ccc([N+](=O)[O-])cc2)c1 | N |
| CC(NC(=O)c1cccc2ccccc12)c1ccc2c(c1)CCCC2 (centres undefined) | Y |
| COc1cc2c(-c3ccc4c(c3)OCO4)c(-c3ccsc3)oc(=O)c2cc1OC | N |
| Cc1cccc(OP(=O)(Nc2c(C)n(C)n(-c3ccccc3)c2=O)Oc2cccc(C)c2)c1 | Y |
| CCn1nc(C(=O)NNS(=O)(=O)c2cc(/C=C/C(=O)O)cc(OC)c2OC)c2ccccc2c1=O | N |

====

Molecular target: Orexin/Hypocretin receptor type 1 (Homo sapiens)
Test: antagonists of human orexin 1 receptor (OX1R) (AID 485270);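 note: 0% = agonist challenge alone and 100% = reference antagonist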
Conditions: OX1R-expressing cells, FRET antagonist read-out; at 6.6 µM; stronger effect = higher value
Out of some 330,000 compounds screened, about 5,800 (1.8%) were called active. The entries come from a sample that favours actives as a whole.
Listed here are molecules together with their documented inhibition.

| Molecule | Tested On | inhibition [%] |
| --- | --- | --- |
| CNC(=O)c1cccc2nc3ccccc3nc12 | Orexin/Hypocretin receptor type 1 (Homo sapiens) | 61.4 |
| COc1cc(/C=C/C(=O)OCC(=O)NCCCc2ccccc2)ccc1O | Orexin/Hypocretin receptor type 1 (Homo sapiens) | 5.75 |
| CNC(=O)c1cc2c(ccc3ccccc32)oc1=N | Orexin/Hypocretin receptor type 1 (Homo sapiens) | 50.1 |
| CCOC(=O)CSc1nc(C)cc2c1C(=O)OC2 | Orexin/Hypocretin receptor type 1 (Homo sapiens) | 5.73 |
| CCCCOC(=O)CCCc1ccc([N+](=O)[O-])cc1[N+](=O)[O-] | Orexin/Hypocretin receptor type 1 (Homo sapiens) | 18.3 |
| COC(=O)COc1cccc2c(=O)n(CC(=O)NCCc3ccc(OC)c(OC)c3)ccc12 | Orexin/Hypocretin receptor type 1 (Homo sapiens) | 1.07 |
| CCCSc1ccc([C@H]2N[C@@](Cc3ccccc3)(C(=O)OC)[C@H]3C(=O)N(C)C(=O)[C@@H]23)cc1 | Orexin/Hypocretin receptor type 1 (Homo sapiens) | 8.14 |
| Cc1ccc(S(=O)(=O)N2CCN(c3ncnc4ccccc34)CC2)cc1 | Orexin/Hypocretin receptor type 1 (Homo sapiens) | 25.9 |
| COc1ccc(N2C(=O)c3cccc4cccc(c34)C2=O)nn1 | Orexin/Hypocretin receptor type 1 (Homo sapiens) | 62.1 |
| O=C1OCCN1C(=O)[C@H]1[C@H](c2ccc(Cl)cc2)C(c2cccc(Cl)c2)=NN1c1ccc(Br)cc1 | Orexin/Hypocretin receptor type 1 (Homo sapiens) | -1.81 |
| Cc1ccc(C(=O)N/C(=C/c2ccc(-c3cccc([N+](=O)[O-])c3)o2)C(=O)NCCCN(C)C)cc1 | Orexin/Hypocretin receptor type 1 (Homo sapiens) | 63.9 |
| CC(OC(=O)c1c(F)cccc1F)C(=O)NCCC1=CCCCC1 (stereo not drawn) | Orexin/Hypocretin receptor type 1 (Homo sapiens) | 6.17 |
| CCOC(=O)C/C(C)=N\Nc1ccc([N+](=O)[O-])cc1[N+](=O)[O-] | Orexin/Hypocretin receptor type 1 (Homo sapiens) | 55.3 |
| O=C(Nc1cc(S(=O)(=O)N2CCCCC2)ccc1Cl)C1COc2ccccc2O1 (stereo not drawn) | Orexin/Hypocretin receptor type 1 (Homo sapiens) | 2.12 |
| CCN(CC)S(=O)(=O)c1ccc(N2CCCC2)c(NC(=O)c2ccc([N+](=O)[O-])o2)c1 | Orexin/Hypocretin receptor type 1 (Homo sapiens) | 25.5 |
| CN=C(Nc1cccc(S(=O)(=O)N2CCOCC2)c1)c1ccccc1 | Orexin/Hypocretin receptor type 1 (Homo sapiens) | 2.1 |
| c1coc(CNc2ncnc3ccccc23)c1 | Orexin/Hypocretin receptor type 1 (Homo sapiens) | 37.9 |
| COc1cc(OC)cc(-c2c(C#Cc3ccsc3)c3cc(-c4ccc(OC)cc4F)ccc3n2C)c1 | Orexin/Hypocretin receptor type 1 (Homo sapiens) | 9.29 |
| O=C(C1CC1)N1N=C2CCCCC2C1(O)C(F)(F)F (stereo not drawn) | Orexin/Hypocretin receptor type 1 (Homo sapiens) | 5.9 |
| Cc1noc(C)c1NC(=O)Nc1cccc2c1O[C@H](CN(C)S(=O)(=O)c1c(C)noc1C)[C@@H](C)CN([C@H](C)CO)C2=O | Orexin/Hypocretin receptor type 1 (Homo sapiens) | -0.11 |
| Cc1ccccc1NC(=O)CSC(=O)c1ccccc1 | Orexin/Hypocretin receptor type 1 (Homo sapiens) | 3.63 |
| COC(=O)C1=C(C)N(Cc2ccccc2)C(=NCCCOC(C)C)N[C@H]1c1ccccc1 | Orexin/Hypocretin receptor type 1 (Homo sapiens) | 10.8 |
| CN(C)CCNC(=O)/C(=C/c1cccc([N+](=O)[O-])c1)NC(=O)c1ccccc1 | Orexin/Hypocretin receptor type 1 (Homo sapiens) | 12.9 |
| CCOc1ncccc1C(=O)Nc1ccc2c(c1)OCCO2 | Orexin/Hypocretin receptor type 1 (Homo sapiens) | 14.1 |
| Cc1ccc(C(=O)N2CCCC(c3ccccc3)=N2)cc1 | Orexin/Hypocretin receptor type 1 (Homo sapiens) | 64.4 |
| CCCCNc1c(-c2ccc(OC)c(Sc3ccc(OC)cc3)c2)nc2ccc(Cl)cn12 | Orexin/Hypocretin receptor type 1 (Homo sapiens) | 13.3 |
| COc1cc(OC)cc(C(=O)N[C@H](C(=O)NNC(=O)c2ccc(Br)cc2)C(C)C)c1 | Orexin/Hypocretin receptor type 1 (Homo sapiens) | 6.01 |
| O=C(COC(=O)c1ccc(F)cc1)Nc1ccc2c(c1)OCO2 | Orexin/Hypocretin receptor type 1 (Homo sapiens) | 7.07 |
| CCOC(=O)CSC1=N/C(=C/c2ccc(-n3cncn3)cc2)C(=O)N1C(C)=O | Orexin/Hypocretin receptor type 1 (Homo sapiens) | 64.5 |
| c1ccc(-c2nc(NCc3ccco3)c3ccccc3n2)cc1 | Orexin/Hypocretin receptor type 1 (Homo sapiens) | 81.6 |
| O=C(CSc1nc2ccccc2c(=O)n1-c1ccccc1F)N1CCOCC1 | Orexin/Hypocretin receptor type 1 (Homo sapiens) | 16.2 |
| CCN(CC)C(=O)[C@H]1CC(CC(=O)NCc2ccco2)C(=O)N2CCc3c([nH]c4ccccc34)[C@]12C (stereo partly drawn) | Orexin/Hypocretin receptor type 1 (Homo sapiens) | 6.65 |
| CCC(=O)OCCNc1nc(-c2ccccc2)nc2ccccc12 | Orexin/Hypocretin receptor type 1 (Homo sapiens) | 48.8 |
| N#C/C(=C\c1ccc(-c2cccc([N+](=O)[O-])c2)o1)C(=O)NCCN1CCOCC1 | Orexin/Hypocretin receptor type 1 (Homo sapiens) | 43.6 |
| O=C1c2ccccc2C(=O)N1c1cccc2ccccc12 | Orexin/Hypocretin receptor type 1 (Homo sapiens) | 17 |
| COc1ccc(-c2c(C#Cc3ccsc3)c3cc(-c4ccc(CN5CCOCC5)cc4)ccc3n2C)cc1 | Orexin/Hypocretin receptor type 1 (Homo sapiens) | 8.67 |
| C[C@H](CO)N1C[C@H](C)[C@@H](CN(C)S(=O)(=O)c2ccc(F)cc2)Oc2ccc(NC(=O)CCC(F)(F)F)cc2C1=O | Orexin/Hypocretin receptor type 1 (Homo sapiens) | 9.27 |
| CCOC(=O)c1ccc(NNC(C)=O)c([N+](=O)[O-])c1 | Orexin/Hypocretin receptor type 1 (Homo sapiens) | 26.7 |
